# Tested on: Fibroblast
# method-description: Multiplex assay against human fibroblast
# Assay type: toxicity, cell-based
# settings: 24 h, 1 µM, compound concentration 1 uM, number of replicates 2
Assign Population Normal (%) to each entry below.
One number for each entry, in %.

[[record]]
chemical_smiles = "O=C1NC(=NCc2cccs2)SC1=Cc1ccc2ncccc2c1"
property_measured = "Population Normal (%)"
numeric_result = 100

[[record]]
chemical_smiles = "CS(=O)(=O)c1ccc(C(=O)Nc2cc(F)cc(COc3cc(F)c(Br)cc3CN3CC[C@H](O)C3)c2)c(Cl)c1.O=CO"
property_measured = "Population Normal (%)"
numeric_result = 100


We now examine a further compound.
Query block: Using the record for CS(=O)(=O)c1ccc(C(=O)Nc2cc(F)c(F)c(COc3cc(F)c(Br)cc3CN3CC[C@H](O)C3)c2)c(Cl)c1.O=CO , report its Population Normal (%).
Result block: 99

###

# Test system: HEK-293T
# method-description: Multiplex assay against HEK293T
# Format: toxicity, cell-based
# settings: human, 48 h, 10 µM, compound concentration 10 uM, number of replicates 2
Assign Population Hoechst High Intensity Objects (%) to each entry below.
One number for each entry, in %.

Below are worked cases with known answers.
[[record]]
compound = "CNS(=O)(=O)c1ccc(N(C)C)c(Nc2ncnc3cc(OC)c(OC)cc23)c1"
numeric_result = 12

[[record]]
compound = "Cc1ccc2c(N)c(C(=O)NC3CCc4cc(N5CC6CCC(C5)N6)ccc4C3)sc2n1.O=CO (centres undefined)"
numeric_result = 67

[[record]]
compound = "Cn1cc(-c2ccc(-c3cncc(Cl)c3N3CCC4(CCNC4=O)CC3)cc2)cn1"
numeric_result = 10


We now examine a further compound.
Query block: Using the record for COc1ccccc1-c1cc(Nc2cccc(CS(N)(=O)=O)c2)ncn1 , report its Population Hoechst High Intensity Objects (%).
Result block: 6

###

# Test system: Fibroblast
# method-description: Multiplex assay against human fibroblast
# Format: toxicity, cell-based
# settings: 48 h, 10 µM, compound concentration 10 uM, number of replicates 2
Assign Population Normal (%) to each entry below.
Numbers only, in %.

Below are worked cases with known answers.
[[record]]
compound = "Cn1cc(-c2ccc(-c3cncc(Cl)c3N3CCC4(CCNC4=O)CC3)cc2)cn1"
experimental_target = "Fibroblast"
u = "%"
numeric_result = 99

[[record]]
compound = "CCN1C(=O)N(c2c(F)c(OC)cc(OC)c2F)Cc2cnc3[nH]c(CN4CCOCC4)cc3c21 [PEMIGATINIB]"
experimental_target = "Fibroblast"
u = "%"
numeric_result = 100


Return reported Population Normal (%) values for all items listed beneath this line.
1. CC1=C(C)C(=O)C(C(CCCCCC(=O)O)c2ccccc2)=C(C)C1=O (stereo not given) [SERATRODAST]
2. COc1ccc(F)c(F)c1C(=O)c1cnc(NC2CCN(S(C)(=O)=O)CC2)nc1N [RG-547]

Result block:
1: 100; 2: 100

Query block: Recall the recorded Population Normal (%) for NC(=O)c1ccc(-c2nc(-c3ccc4c(c3)OCCO4)c(-c3ccccn3)[nH]2)cc1 with Fibroblast and state it.
Result block: 100

###

# System: U2OS
# method-description: Multiplex assay against U2OS
# Assay type: toxicity, cell-based
# settings: human, 24 h, 1 µM, compound concentration 1 uM, number of replicates 2
Outcome: Y for Population Membrane Permeable-Phenotype (%) of at least 3%; N for anything lower.

[[record]]
compound = "NC(=O)c1ccc(-c2nc(-c3ccc4c(c3)OCCO4)c(-c3ccccn3)[nH]2)cc1"
group_label = "N"

[[record]]
compound = "COC(=O)Nc1nc2c(s1)-c1c(c(-c3cccnc3)nn1-c1ccc(C3(N(C)C)CC3)cc1)CC2.Cl.Cl"
group_label = "Y"

[[record]]
compound = "Cl.Clc1ccc2nsnc2c1NC1=NCCN1 [TIZANIDINE HYDROCHLORIDE]"
group_label = "N"

[[record]]
compound = "COc1ccc(F)c(F)c1C(=O)c1cnc(NC2CCN(S(C)(=O)=O)CC2)nc1N"
group_label = "Y"


Could you now consider this next compound?
Query block: Check if Population Membrane Permeable-Phenotype (%) >= 3% (inclusive). Item: COc1cc(N(C)c2ccnc3ccc(C(F)(F)F)cc23)cc(OC)c1OC
Result block: N

###

# System: Fibroblast
# method-description: Multiplex assay against human fibroblast
# Assay type: toxicity, cell-based
# settings: 24 h, 1 µM, compound concentration 1 uM, number of replicates 2
Assign Population Membrane Permeable-Phenotype (%) to each entry below.
Give bare numbers, in %.

Return reported Population Membrane Permeable-Phenotype (%) values for all items listed beneath this line.
1. CC(C)N1CCN(Cc2cnc(-c3cc(-c4cccc5[nH]ccc45)cc4[nH]ncc34)o2)CC1
2. Cl.Clc1ccc2nsnc2c1NC1=NCCN1 [TIZANIDINE HYDROCHLORIDE]

Result block:
1: 7; 2: 6

###

# Tested on: HEK-293T
# method-description: Multiplex assay against HEK293T
# Format: toxicity, cell-based
# settings: human, 24 h, 1 µM, compound concentration 1 uM, number of replicates 2
property-measured: Population Mitochondria Different-Phenotype (%)
Numbers only, in %.

Below are worked cases with known answers.
[[record]]
compound = "Cc1cn(CCN2CCN(c3ccccc3-c3cc(C#N)cc(C(=O)NCCCN4CCCC4)c3)CC2)c2ccccc12"
experimental_target = "HEK-293T"
numeric_result = 12

[[record]]
compound = "O=C(Nc1ccnc(NC(=O)C2CC2)c1)c1c(Cl)cccc1Cl"
experimental_target = "HEK-293T"
numeric_result = 3


Return reported Population Mitochondria Different-Phenotype (%) values for all items listed beneath this line.
1. CC1=C(C)C(=O)C(C(CCCCCC(=O)O)c2ccccc2)=C(C)C1=O (centres undefined) [SERATRODAST]
2. CNS(=O)(=O)c1ccc(N(C)C)c(Nc2ncnc3cc(OC)c(OC)cc23)c1

Result block:
1. 3
2. 4

###

# System: Fibroblast
# method-description: Multiplex assay against human fibroblast
# Type: toxicity, cell-based
# settings: 48 h, 10 µM, compound concentration 10 uM, number of replicates 2
property-measured: Population Mitotic Cells (%)
Answers are plain numbers, in %.

Below are worked cases with known answers.
[[record]]
chemical_smiles = "c1ccc2c(-c3coc4cc(-c5ccc(N6CCNCC6)cc5)cnc34)ccnc2c1"
numeric_result = 8

[[record]]
chemical_smiles = "CS(=O)(=O)c1ccc(C(=O)Nc2cccc(COc3cc(F)c(Br)cc3CN3CC[C@H](O)C3)c2)c(Cl)c1.O=CO"
numeric_result = 7

[[record]]
chemical_smiles = "COc1ccncc1C(=O)NC(=O)Nc1ccc(-c2ccccc2)c(C(F)(F)F)c1"
numeric_result = 33

[[record]]
chemical_smiles = "C=CC(=O)Nc1cccc(C)c1Nc1ncc2cc(-c3c(Cl)c(OC)cc(OC)c3Cl)ccc2n1"
numeric_result = 16


We now examine a further compound.
Query block: Recall the recorded Population Mitotic Cells (%) for Cc1cn(CCN2CCN(c3ccccc3-c3cc(C#N)cc(C(=O)NCCCN4CCCC4)c3)CC2)c2ccccc12 with Fibroblast and state it.
Result block: 4

###

# Test system: Fibroblast
# method-description: Multiplex assay against human fibroblast
# Type: toxicity, cell-based
# settings: 24 h, 1 µM, compound concentration 1 uM, number of replicates 2
Assign Population Mitochondria Different-Phenotype (%) to each entry below.
Answers are plain numbers, in %.

[[record]]
chemical_smiles = "C=CC(=O)Nc1cccc(C)c1Nc1ncc2cc(-c3c(Cl)c(OC)cc(OC)c3Cl)ccc2n1"
experimental_target = "Fibroblast"
numeric_result = 1

[[record]]
chemical_smiles = "CNc1ncc2cc(-c3ccc(-c4cccc(C)n4)cc3Cl)c(=O)n(C[C@H]3OC[C@H](N)CO3)c2n1"
experimental_target = "Fibroblast"
numeric_result = 0

[[record]]
chemical_smiles = "COc1cc(C(N)=O)ccc1Nc1ncc2c(n1)N(CCC(C)C)[C@H](C)C(=O)N2C"
experimental_target = "Fibroblast"
numeric_result = 0

[[record]]
chemical_smiles = "O=C1NC(=NCc2cccs2)SC1=Cc1ccc2ncccc2c1"
experimental_target = "Fibroblast"
numeric_result = 0


Return reported Population Mitochondria Different-Phenotype (%) values for all items listed beneath this line.
1. CN1CCc2cc(Nc3ncc(C(F)(F)F)c(NCc4cc[nH]n4)n3)ccc2C1
2. CC(C)NC(=O)[C@H]1CCC[C@H]1Nc1nc(Nc2ccc(C(=O)N(C)C3CCN(C)CC3)cc2)ncc1Cl
3. COc1ccc(CC[C@@H](OC(=O)[C@@H]2CCCCN2C(=O)[C@H](c2cc(OC)c(OC)c(OC)c2)C2CCCCC2)c2cccc(OCCN3CCOCC3)c2)cc1OC

Result block:
1: 0; 2: 0; 3: 14

Return reported Population Mitochondria Different-Phenotype (%) values for all items listed beneath this line.
1. CSc1cc2c(cc1C(F)(F)F)N(C(=O)Nc1cccnc1)CC2
2. COc1cc(N(C)c2ccnc3ccc(C(F)(F)F)cc23)cc(OC)c1OC
3. NC(=O)c1ccc(-c2nc(-c3ccc4c(c3)OCCO4)c(-c3ccccn3)[nH]2)cc1

Result block:
1: 0; 2: 1; 3: 0

Where these numbers come from: ChEMBL document CHEMBL5303300
